Recorded IC50, one value per entry.
biological target: KRasG12C (M1-K169, biotinylated on the N-terminus) (Homo sapiens (Human), UniProt P01116, G12C); experiment: Covalent competition assay: scintillation proximity assay (SPA) quantifying covalent modification of KRASG12C; conditions: competition with radiolabeled covalent probe (Compound B/Compound A), 2 hours incubation, 10 nM KRasG12C
assay.metric: IC50 (nM)

[[record]]
molecule = "C=CC(=O)N1CC2(CC(n3nc(N4CC[C@@H](CN5CCCC56CN(C(C)=O)C6)CC4(C)C)c(-c4c(Cl)c(Cl)cc5[nH]ncc45)c3C)C2)C1 (single isomer, unassigned) [Example 276b]"
readout_unit = "nM"
qualifier = "<"
assay_result = 5

[[record]]
molecule = "C=CC(=O)N1CC2(CC(n3nc(N4CCC(CN5C[C@@H]6C[C@H]5CO6)CC4(C)C)c(-c4c(Cl)c(Cl)cc5[nH]ncc45)c3C)C2)C1 (single isomer, unassigned) [Example 217a]"
readout_unit = "nM"
qualifier = "="
assay_result = 928

[[record]]
molecule = "C=CC(=O)N1CC2(CC(n3nc(N4CCC(N5CCOCC5)CC4(C)C)c(-c4c(Cl)c(C)cc5[nH]ncc45)c3C)C2)C1 (single isomer, unassigned) [Example 34b]"
readout_unit = "nM"
qualifier = "="
assay_result = 13

[[record]]
molecule = "C=CC(=O)N1CC2(CC(n3nc(N4CCN(C[C@@H]5COCCO5)CC45CCC5)c(-c4c(Cl)c(C)cc5[nH]ncc45)c3C)C2)C1 (single isomer, unassigned) [Example 169a]"
readout_unit = "nM"
qualifier = ">"
assay_result = 5000

[[record]]
molecule = "C=CC(=O)N1CC2(CC(n3nc(N4CCN(C[C@@H]5COCCO5)C[C@]4(C)CC)c(-c4c(Cl)c(C)cc5[nH]ncc45)c3C)C2)C1 (single isomer, unassigned) [Example 173b]"
readout_unit = "nM"
qualifier = "="
assay_result = 5

